molecular target: MKK7-TIPRL interaction (Homo sapiens, UniProt O14733+O75663); experiment: ELISA of the MKK7-TIPRL interaction; assay type: binding; set-up: The full-length cDNAs of human TIPRL and MKK7 were provided by the Korea Human Gene Bank; His; made in house; conditions: hit compounds from the in-house library; Supplementary Table 2; read-out: ELISA IC50
Reported IC50 is given for each of the following molecules.
Measurement name: IC50

# Smiles record, Study target, Recorded measurement
measured = [
    ("O=[N+]([O-])c1ccc2c(cnn2-c2ccc(F)cc2)c1", "MKK7-TIPRL interaction (Homo sapiens, UniProt O14733+O75663)", "2.8 µM"),
    ("CC(=O)c1cc(-n2ncc3cc(NS(=O)(=O)c4ccccc4)ccc32)c(Cl)cc1Cl", "MKK7-TIPRL interaction (Homo sapiens, UniProt O14733+O75663)", "1.7 µM"),
    ("O=Cc1cc([N+](=O)[O-])ccc1F", "MKK7-TIPRL interaction (Homo sapiens, UniProt O14733+O75663)", "2 µM"),
    ("Nc1ccc2c(cnn2-c2ccc(F)cc2)c1", "MKK7-TIPRL interaction (Homo sapiens, UniProt O14733+O75663)", "1 µM"),
    ("CC(=O)c1cc(-n2cc3cc(N)ccc3n2)c(Cl)cc1Cl", "MKK7-TIPRL interaction (Homo sapiens, UniProt O14733+O75663)", "3.5 µM"),
    ("Nc1ccc2[nH]ncc2c1", "MKK7-TIPRL interaction (Homo sapiens, UniProt O14733+O75663)", "1.4 µM"),
    ("O=[N+]([O-])c1ccc(F)c(/C=N/Nc2ccc(F)cc2)c1", "MKK7-TIPRL interaction (Homo sapiens, UniProt O14733+O75663)", "8.9 µM"),
    ("CC(=O)c1cc(-n2ncc3cc(N)ccc32)c(Cl)cc1Cl", "MKK7-TIPRL interaction (Homo sapiens, UniProt O14733+O75663)", "1 µM"),
    ("COc1ccc(S(=O)(=O)Nc2ccc3c(cnn3-c3ccc(F)cc3)c2)cc1", "MKK7-TIPRL interaction (Homo sapiens, UniProt O14733+O75663)", "0.089 µM"),
]

----------
Test: Pharmacokinetics in rats
Type: in vivo, Sprague-Dawley rats
Conditions: male, Sprague-Dawley, plasma, iv; rat, i.v. 5 mg/kg, after 24 h; read-out: AUC (i.v.)
Experimental: Male Sprague-Dawley rats anesthetized with ketamine were cannulated with polyethylene tubing in the femoral vein. […] The concentrations of target compound in the plasma were measured using LC-MS/MS (4000 QTRAP, AB SCIEX, Foster City, CA) in multiple reaction monitoring (MRM) mode. The PK parameters were determined with non-compartmental methods using Phoenix WinNolin (Pharsight, Mountain View, CA). […]

# Smiles record, AUC (ng·h/mL)
data = [
    ("CC(=O)c1cc(-n2ncc3cc(NS(=O)(=O)c4ccccc4)ccc32)c(Cl)cc1Cl", 10000),
    ("COc1ccc(S(=O)(=O)Nc2ccc3c(cnn3-c3ccc(F)cc3)c2)cc1", 4270),
]

----------
assay: MTT cell viability assay, Huh7 cells; type: cell-based, human; settings: human; Huh7 cells, MTT, without TRAIL; Supplementary Table 2; read-out: Cell viability assay (%) Compound only
Reported viability is given for each of the following molecules.

# Smiles record, Units, viability
data = [
    ("O=[N+]([O-])c1ccc(F)c(/C=N/Nc2ccc(F)cc2)c1", "%", 89),
    ("COc1ccc(S(=O)(=O)Nc2ccc3c(cnn3-c3ccc(F)cc3)c2)cc1", "%", 86),
    ("O=Cc1cc([N+](=O)[O-])ccc1F", "%", 93),
    ("Nc1ccc2c(cnn2-c2ccc(F)cc2)c1", "%", 90),
    ("CC(=O)c1cc(-n2ncc3cc(NS(=O)(=O)c4ccccc4)ccc32)c(Cl)cc1Cl", "%", 42),
    ("O=[N+]([O-])c1ccc2c(cnn2-c2ccc(F)cc2)c1", "%", 69),
    ("CC(=O)c1cc(-n2ncc3cc(N)ccc32)c(Cl)cc1Cl", "%", 80),
    ("Nc1ccc2[nH]ncc2c1", "%", 81),
    ("CC(=O)c1cc(-n2cc3cc(N)ccc3n2)c(Cl)cc1Cl", "%", 111),
]

----------
Target: MKK7-TIPRL interaction (Homo sapiens, UniProt O14733+O75663)
Sequence (O14733 1-419): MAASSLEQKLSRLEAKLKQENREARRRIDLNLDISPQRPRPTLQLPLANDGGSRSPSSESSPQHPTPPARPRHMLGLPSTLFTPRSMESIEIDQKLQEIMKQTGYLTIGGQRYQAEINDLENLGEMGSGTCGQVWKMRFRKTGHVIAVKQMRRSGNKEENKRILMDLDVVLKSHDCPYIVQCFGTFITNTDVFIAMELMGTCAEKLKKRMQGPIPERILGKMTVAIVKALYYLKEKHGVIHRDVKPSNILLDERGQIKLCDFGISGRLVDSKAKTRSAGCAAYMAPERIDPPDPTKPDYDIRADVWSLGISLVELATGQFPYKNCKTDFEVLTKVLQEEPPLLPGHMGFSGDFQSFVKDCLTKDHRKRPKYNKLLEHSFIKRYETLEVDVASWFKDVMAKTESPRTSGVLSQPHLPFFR
Sequence (O75663 1-272): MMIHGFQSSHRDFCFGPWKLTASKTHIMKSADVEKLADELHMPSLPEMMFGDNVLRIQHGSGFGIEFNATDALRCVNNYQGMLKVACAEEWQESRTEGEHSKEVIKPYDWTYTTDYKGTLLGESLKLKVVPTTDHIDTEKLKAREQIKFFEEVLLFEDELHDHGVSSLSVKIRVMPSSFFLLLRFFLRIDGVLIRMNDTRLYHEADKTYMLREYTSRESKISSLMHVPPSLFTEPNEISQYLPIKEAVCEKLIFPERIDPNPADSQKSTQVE
Assay: ELISA of the MKK7-TIPRL interaction
Type: binding
Design: The full-length cDNAs of human TIPRL and MKK7 were provided by the Korea Human Gene Bank; His; made in house
Conditions: newly synthesized TRT-0002, ELISA; read-out: IC50 to inhibit the MKK7-TIPRL interaction
Method: The full-length cDNAs of human TIPRL and MKK7 were provided by the Korea Human Gene Bank (Korea Research Institute of Biosciences and Biotechnology, South Korea). […] To screen chemical compounds using HTS, an ELISA system that detected the TIPRL and MKK7 interaction was constructed. […] After 1 h, 100 μl of tetramethylbenzidine (TMB) solution was added to each well and the absorbance was read at 450 nm.

# Smiles record, Units, IC50
measured = [
    ("CC(=O)c1cc(-n2ncc3cc(N)ccc32)c(Cl)cc1Cl", "nM", 1400),
]

----------
assay: Pharmacokinetics in rats; type: in vivo, Sprague-Dawley rats; details: male, Sprague-Dawley, plasma, po; rat, p.o. 5 mg/kg, after 24 h; read-out: AUC (p.o.)
Measurement name: AUC (ng·h/mL)

# Smiles record, Recorded measurement
measured = [
    ("CC(=O)c1cc(-n2ncc3cc(NS(=O)(=O)c4ccccc4)ccc32)c(Cl)cc1Cl", 1220),
    ("COc1ccc(S(=O)(=O)Nc2ccc3c(cnn3-c3ccc(F)cc3)c2)cc1", 1150),
]

----------
Reported viability at 24 h, 10 µM is given for each of the following molecules.
Experiment: MTT cell viability assay, Huh7 cells
Type: cell-based, human
Details: human, Huh7 cells; Huh7, MTT, 10 µM, 24 hrs, without TRAIL; Supplementary Table 3; read-out: Cell viability assay Compound only
Description: Cell viability was assessed using a 3-(4,5-dimethylthiazol-2-yl)-2,5-diphenyltetrazolium bromide (MTT, Sigma-Aldrich, St. Louis, USA) assay. The cells were seeded at a density of 1 × 10^4 cells per well and treated with the lead compounds and/or TRAIL. After 24 or 48 h, MTT (2 mg/ml) was added to each well, and the absorbance was measured using a microplate reader (Bio-Rad, Hercules, USA) at 570 nm. […]

# Smiles record, viability at 24 h, 10 µM
measured = [
    ("CC(=O)c1cc(-n2ncc3cc(NS(=O)(=O)c4ccccc4)ccc32)c(Cl)cc1Cl", "69%"),
    ("COc1ccc(S(=O)(=O)Nc2ccc3c(cnn3-c3ccc(F)cc3)c2)cc1", "53%"),
]

----------
assay: MTT cell viability assay, Huh7 cells; assay type: cell-based, human; conditions: human, Huh7 cells; Huh7, MTT, 40 µM, 48 hrs, without TRAIL; Supplementary Table 3; read-out: Cell viability assay Compound only

# Compound, Units, viability at 48 h, 40 µM
records = [
    ("CC(=O)c1cc(-n2ncc3cc(N)ccc32)c(Cl)cc1Cl [TRT-0002]", "%", 81),
]
